Target: Single-stranded DNA-binding protein (Escherichia coli (strain K12))
Assay: E. coli SSB displacement from DNA, counter-screen for HCV NS3 helicase inhibitor project, biochemical, fluorescence polarization, NIH Clinical Collection (AID 743271)
Settings: concentration not given here
Calls of active or inactive are those of the source. Cut-off read from the data, not from the text of the source: active = inhibition above about 28%; inactive = the rest.
Labels: y = active, n = inactive

* NC(Cc1cc(I)c(Oc2ccc(O)c(I)c2)c(I)c1)C(=O)O (centres undefined) | n
* CN(CCO)CC(O)Cn1cnc2c1c(=O)n(C)c(=O)n2C (centres undefined) (tested in a mixture with another compound) | n
* CON=C(C(=O)N[C@@H]1C(=O)N2C(C(=O)O)=C(COC(N)=O)CS[C@H]12)c1ccco1 | n
* N[C@@H](C(=O)N[C@@H]1C(=O)N2C(C(=O)O)=C(CSc3cn[nH]n3)CS[C@H]12)c1ccc(O)cc1 (tested in a mixture with another compound) | y
